Listed below: pIC50 values for each entry.
target: Sm20S β5 subunit (Schistosoma mansoni); assay: Inhibition of single-step enriched Sm20S, β5 substrate
Sequence (A0A5K4F079 63-264): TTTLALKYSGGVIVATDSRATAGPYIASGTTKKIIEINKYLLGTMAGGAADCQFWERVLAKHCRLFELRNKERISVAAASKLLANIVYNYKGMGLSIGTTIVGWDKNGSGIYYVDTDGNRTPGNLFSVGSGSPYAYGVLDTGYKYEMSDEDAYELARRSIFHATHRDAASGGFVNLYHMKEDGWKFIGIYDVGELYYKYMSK
pIC50: −log10 of the molar value.
PROPERTY_MEASURED: pIC50

• CC(C)C[C@H](NC(=O)[C@H](Cc1ccccc1)NC(=O)c1cnccn1)B(O)O = 7.75
• CC(C)C[C@H](NC(=O)[C@H](CCc1ccccc1)NC(=O)CN1CCOCC1)C(=O)N[C@@H](Cc1ccccc1)C(=O)N[C@@H](CC(C)C)C(=O)[C@@]1(C)CO1 = 8.60

---

molecular target: Sm20S β2 subunit (Schistosoma mansoni, UniProt G4VSW3); assay: Inhibition of single-step enriched Sm20S, β2 substrate
Sequence (G4VSW3 39-281): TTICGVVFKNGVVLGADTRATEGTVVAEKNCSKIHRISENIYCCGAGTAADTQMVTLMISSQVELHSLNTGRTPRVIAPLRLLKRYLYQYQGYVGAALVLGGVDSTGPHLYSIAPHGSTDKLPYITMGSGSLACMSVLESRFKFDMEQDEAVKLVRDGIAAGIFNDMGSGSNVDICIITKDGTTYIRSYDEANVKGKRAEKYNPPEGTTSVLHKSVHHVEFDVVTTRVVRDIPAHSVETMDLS
Sequence (UPI0001A6248C 1-194 partner): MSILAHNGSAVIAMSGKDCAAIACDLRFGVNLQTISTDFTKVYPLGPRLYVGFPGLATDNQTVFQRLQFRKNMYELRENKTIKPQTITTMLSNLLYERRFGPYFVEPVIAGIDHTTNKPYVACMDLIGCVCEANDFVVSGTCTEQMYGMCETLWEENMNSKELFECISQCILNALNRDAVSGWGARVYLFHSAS
pIC50: −log10 of the molar value.
PROPERTY_MEASURED: pIC50

* CC(C)C[C@H](NC(=O)[C@H](CCc1ccccc1)NC(=O)CN1CCOCC1)C(=O)N[C@@H](Cc1ccccc1)C(=O)N[C@@H](CC(C)C)C(=O)[C@@]1(C)CO1 | 6.54

---

target: Sm20S β1 subunit (Schistosoma mansoni); assay: Inhibition of single-step enriched Sm20S, β1 substrate
Sequence (G4V926 26-225): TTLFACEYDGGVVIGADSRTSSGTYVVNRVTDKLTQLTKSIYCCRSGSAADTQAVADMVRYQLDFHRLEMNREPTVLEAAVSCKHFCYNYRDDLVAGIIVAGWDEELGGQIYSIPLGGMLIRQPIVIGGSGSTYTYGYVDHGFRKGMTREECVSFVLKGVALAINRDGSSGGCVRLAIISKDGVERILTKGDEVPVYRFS
PROPERTY_MEASURED: IC50 (nM)

* CC(C)C[C@H](NC(=O)[C@H](Cc1ccccc1)NC(=O)c1cnccn1)B(O)O | 49.8
